# experimental-system: human SGLT2 (Homo sapiens)
# Construct: expressed in transfected cells; host or cells: CHO-K1
# Sequence (P31639 whole entry): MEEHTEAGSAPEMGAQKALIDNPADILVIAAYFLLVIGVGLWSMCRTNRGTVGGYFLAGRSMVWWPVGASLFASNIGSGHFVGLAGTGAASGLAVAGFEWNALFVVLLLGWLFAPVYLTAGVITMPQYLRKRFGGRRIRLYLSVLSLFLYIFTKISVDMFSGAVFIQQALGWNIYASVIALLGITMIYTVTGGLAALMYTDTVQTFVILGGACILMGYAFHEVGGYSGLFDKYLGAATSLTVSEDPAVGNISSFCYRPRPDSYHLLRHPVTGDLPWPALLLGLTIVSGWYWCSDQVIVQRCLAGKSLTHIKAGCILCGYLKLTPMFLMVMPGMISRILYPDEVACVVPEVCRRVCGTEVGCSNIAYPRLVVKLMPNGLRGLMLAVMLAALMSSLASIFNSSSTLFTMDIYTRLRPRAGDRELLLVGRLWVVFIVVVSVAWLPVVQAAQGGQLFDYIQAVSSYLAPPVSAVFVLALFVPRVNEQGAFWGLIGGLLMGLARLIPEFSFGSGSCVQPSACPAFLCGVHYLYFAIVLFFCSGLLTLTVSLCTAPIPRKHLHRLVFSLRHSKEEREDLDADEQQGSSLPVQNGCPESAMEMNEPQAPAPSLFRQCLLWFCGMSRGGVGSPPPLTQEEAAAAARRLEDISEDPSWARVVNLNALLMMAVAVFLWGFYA
# test-method-notes: Inhibition of methyl-α-D-glucopyranoside intake in human SGLT2 stable expression CHO cells
# Type: cell-based
# experimental-conditions: methyl-α-D-(U-14C)glucopyranoside intake, 37° C., 45 minutes
metric-name: IC50 (nM)
Numeric only. Scale: nM

Prompt line: Bench note: what IC50 did Cc1ccc(Cc2cc([C@@H]3O[C@H](CO)[C@@H](O)[C@H](O)[C@H]3O)c3ccccc3c2)s1 [Example 8] show?
Response line: 18

Prompt line: Bench note: what IC50 did OC[C@H]1O[C@@H](c2cc(Cc3cc4ccccc4s3)cc3ccccc23)[C@H](O)[C@@H](O)[C@@H]1O [Example 1] show?
Response line: 18
